# system_tested: F-ATP synthase (subunit ε) (Mycobacterium tuberculosis)
# Sequence (A1KI99 whole entry): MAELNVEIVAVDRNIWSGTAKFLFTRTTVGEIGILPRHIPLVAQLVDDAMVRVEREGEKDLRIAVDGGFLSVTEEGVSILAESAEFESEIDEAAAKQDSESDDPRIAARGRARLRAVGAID
# Sequence (A1KI96 whole entry partner): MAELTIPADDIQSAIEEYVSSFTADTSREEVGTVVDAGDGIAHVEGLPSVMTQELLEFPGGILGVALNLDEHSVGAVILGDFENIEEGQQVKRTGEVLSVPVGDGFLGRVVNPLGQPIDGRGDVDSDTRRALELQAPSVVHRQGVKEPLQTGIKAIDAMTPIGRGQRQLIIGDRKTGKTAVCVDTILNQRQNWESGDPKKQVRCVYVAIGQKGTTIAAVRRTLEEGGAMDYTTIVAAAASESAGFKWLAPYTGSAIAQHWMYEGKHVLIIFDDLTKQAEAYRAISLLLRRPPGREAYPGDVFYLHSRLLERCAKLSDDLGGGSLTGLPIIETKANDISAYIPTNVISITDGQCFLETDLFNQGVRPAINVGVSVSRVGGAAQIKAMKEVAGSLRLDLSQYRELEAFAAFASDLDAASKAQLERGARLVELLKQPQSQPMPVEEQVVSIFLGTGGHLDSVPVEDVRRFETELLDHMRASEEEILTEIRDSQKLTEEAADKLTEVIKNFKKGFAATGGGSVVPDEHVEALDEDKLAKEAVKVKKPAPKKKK
# Sequence (A1KI98 whole entry partner): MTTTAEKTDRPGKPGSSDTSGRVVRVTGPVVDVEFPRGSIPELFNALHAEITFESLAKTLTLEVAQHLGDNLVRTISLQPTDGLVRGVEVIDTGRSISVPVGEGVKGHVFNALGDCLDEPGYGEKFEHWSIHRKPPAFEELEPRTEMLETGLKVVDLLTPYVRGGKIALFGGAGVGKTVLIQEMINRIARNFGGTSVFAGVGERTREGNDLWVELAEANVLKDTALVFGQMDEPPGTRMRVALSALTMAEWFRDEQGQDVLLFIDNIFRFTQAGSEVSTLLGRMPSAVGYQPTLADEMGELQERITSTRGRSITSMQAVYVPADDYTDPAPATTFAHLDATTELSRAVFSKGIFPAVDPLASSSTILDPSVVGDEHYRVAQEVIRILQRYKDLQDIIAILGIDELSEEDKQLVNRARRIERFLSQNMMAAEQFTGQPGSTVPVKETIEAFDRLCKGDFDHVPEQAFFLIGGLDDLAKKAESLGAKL
# Sequence (A1KI97 whole entry partner): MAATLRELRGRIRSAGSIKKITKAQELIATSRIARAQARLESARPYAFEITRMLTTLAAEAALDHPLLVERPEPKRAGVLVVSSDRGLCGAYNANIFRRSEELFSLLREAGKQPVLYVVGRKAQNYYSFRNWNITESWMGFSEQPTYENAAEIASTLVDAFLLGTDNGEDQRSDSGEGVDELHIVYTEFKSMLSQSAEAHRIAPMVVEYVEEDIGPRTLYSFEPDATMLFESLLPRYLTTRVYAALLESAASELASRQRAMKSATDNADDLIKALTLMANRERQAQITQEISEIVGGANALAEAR
# Sequence (A1KI93 whole entry partner): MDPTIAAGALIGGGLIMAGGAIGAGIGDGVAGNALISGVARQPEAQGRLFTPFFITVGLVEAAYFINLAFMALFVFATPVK
measured_parameter: IC50
In your response, the unit should come after the numeric value.

**Q:** Quick one: IC50 for O=C(O[C@@H]1Cc2c(O)cc(O)cc2O[C@@H]1c1cc(O)c(O)c(O)c1)c1cc(O)c(O)c(O)c1 [epigallocatechin gallate] ?
**A:** 2200 nM

====

# system_tested: F-ATP synthase (subunit c) (Mycobacterium tuberculosis, UniProt A1KI93)
# Sequence (A1KI93 whole entry): as the sequence (A1KI93 whole entry partner) above
# Sequence (A1KI99 whole entry partner): as the sequence (A1KI99 whole entry) above
# Sequence (A1KI96 whole entry partner): as the sequence (A1KI96 whole entry partner) above
# Sequence (A1KI98 whole entry partner): as the sequence (A1KI98 whole entry partner) above
measured_parameter: IC50 (nM)
I only need the number, in nM, no unit after it.

**Q:** Quick one: IC50 for COc1nc2ccc(Br)cc2cc1[C@@H](c1ccccc1)[C@@](O)(CCN(C)C)c1cccc2ccccc12 [bedaquiline] ?
**A:** 7.05
